DETAILS: in acetonitrile, 298.15 K
ASSAY METRIC: solubility (mole fraction)
The answer should be written as a number, with no unit following it.

Problem: # query: solubility (mole fraction) of entry `OC[C@@H](O)[C@@H](O)[C@H](O)[C@@H](O)CO`
Result: 0.000208

----------
DETAILS: in acetone, 293.15 K
ASSAY METRIC: solubility (mole fraction)
The answer should be written as a number, with no unit following it.

Problem: # query: solubility (mole fraction) of entry `OC[C@@H](O)[C@@H](O)[C@H](O)[C@@H](O)CO`
Result: 0.000328

----------
DETAILS: in ethyl acetate, 288.15 K
ASSAY METRIC: solubility (mole fraction)
The answer should be written as a number, with no unit following it.

Problem: # query: solubility (mole fraction) of entry `OC[C@@H](O)[C@@H](O)[C@H](O)[C@@H](O)CO`
Result: 0.000289

----------
DETAILS: in THF, 303.15 K
ASSAY METRIC: solubility (mole fraction)

Problem: # query: solubility (mole fraction) of entry `OC[C@@H](O)[C@@H](O)[C@H](O)[C@@H](O)CO`
Result: 0.000597

----------
DETAILS: in THF, 283.15 K
ASSAY METRIC: solubility (mole fraction)

Problem: # query: solubility (mole fraction) of entry `OC[C@@H](O)[C@@H](O)[C@H](O)[C@@H](O)CO`
Result: 0.000406

----------
DETAILS: in ethyl acetate, 298.15 K
ASSAY METRIC: solubility (mole fraction)
The answer should be written as a number, with no unit following it.

Problem: # query: solubility (mole fraction) of entry `OC[C@@H](O)[C@@H](O)[C@H](O)[C@@H](O)CO`
Result: 0.000354

----------
DETAILS: in n-propanol, 283.15 K
ASSAY METRIC: solubility (mole fraction)
The answer should be written as a number, with no unit following it.

Problem: # query: solubility (mole fraction) of entry `OC[C@@H](O)[C@@H](O)[C@H](O)[C@@H](O)CO`
Result: 0.000677

----------
DETAILS: in ethanol, 293.15 K
ASSAY METRIC: solubility (mole fraction)
The answer should be written as a number, with no unit following it.

Problem: # query: solubility (mole fraction) of entry `OC[C@@H](O)[C@@H](O)[C@H](O)[C@@H](O)CO`
Result: 0.00117

----------
DETAILS: in THF, 298.15 K
ASSAY METRIC: solubility (mole fraction)

Problem: # query: solubility (mole fraction) of entry `OC[C@@H](O)[C@@H](O)[C@H](O)[C@@H](O)CO`
Result: 0.000544

----------
DETAILS: in acetonitrile, 303.15 K
ASSAY METRIC: solubility (mole fraction)
The answer should be written as a number, with no unit following it.

Problem: # query: solubility (mole fraction) of entry `OC[C@@H](O)[C@@H](O)[C@H](O)[C@@H](O)CO`
Result: 0.000249

----------
DETAILS: in methanol, 283.15 K
ASSAY METRIC: solubility (mole fraction)
The answer should be written as a number, with no unit following it.

Problem: # query: solubility (mole fraction) of entry `OC[C@@H](O)[C@@H](O)[C@H](O)[C@@H](O)CO`
Result: 0.00275
